Provenance of the data: patent US20250214990A1

The following molecules are shown together with reported maximal fold induction values.
Test system: Human Pan T cells
Assay: IL-2 Release Detection Assay
Format: cell-based
Details: T-cell, Top activation/DMSO control
MEASURED_ENDPOINT: maximal fold induction

[[record]]
molecule = "Cn1c(=O)nc(N2CCOCc3c(C#CC4(C(F)(F)F)CC4)cccc32)c2cc(Cl)c(OC3CCOC3)cc21 (stereo not shown) [Example 11]"
target_of_assay = "Human Pan T cells"
measured_number = 8.6

[[record]]
molecule = "Cn1c(=O)cc(N2CCOCc3c(C#CC4(C(F)(F)F)CC4)cccc32)c2cc(C#N)ccc21 [Example 4]"
target_of_assay = "Human Pan T cells"
measured_number = 10

[[record]]
molecule = "Cn1c(=O)c(C#N)c(N2CCOCc3c(C#CC4(C(F)(F)F)CC4)cccc32)c2cc(F)ccc21 [Example 10]"
target_of_assay = "Human Pan T cells"
measured_number = 5.8

[[record]]
molecule = "Cn1c(=O)nc(N2CCOCc3c(C#CC4(C(F)(F)F)CC4)cccc32)c2cc(F)ccc21 [Example 9]"
target_of_assay = "Human Pan T cells"
measured_number = 13.2

[[record]]
molecule = "Cn1c(=O)cc(N2CCOCc3c(C#CC4(C(F)(F)F)CC4)cccc32)c2cc(Cl)ccc21 [Example 3]"
target_of_assay = "Human Pan T cells"
measured_number = 6.3

[[record]]
molecule = "Cn1c(=O)nc(N2CCOCc3c(C#CC4(C(F)(F)F)CC4)cccc32)c2cc(C#N)c(OCCO)cc21 [Example 14]"
target_of_assay = "Human Pan T cells"
measured_number = 15.3

[[record]]
molecule = "Cn1c(=O)nc(N2CCOCc3c(C#CC4(C(F)(F)F)CC4)cccc32)c2cc(Cl)c(OC3CCOCC3)cc21 [Example 25]"
target_of_assay = "Human Pan T cells"
measured_number = 5.4


###

Assay: Rat PK profile after oral administration
Assay type: in vivo, Male SD rats
Conditions: male, SD, plasma; rat, oral, 5 mg/kg
Text: Species and strain: Male SD rats of SPF. Source: Sino-British SIPPR/BK Lab Animal Ltd, Shanghai. 3 rats were orally gavage administrated with given compounds (Formulation: 5% DMSO+10% Solutol+85% Saline). […] Standard set of parameters including Area Under the Curve (AUC(0-t) and AUC(0-∞)), elimination half-live (T1/2), maximum plasma concentration (Cmax), will be calculated using noncompartmental analysis modules in FDA certified pharmacokinetic program Phoenix WinNonlin 7.0 (Pharsight, USA).
The following compounds are shown together with reported half-life values.
MEASURED_ENDPOINT: half-life (h)

[[record]]
smi = "Cn1c(=O)nc(N2CCOCc3c(C#CC4CC4)cccc32)c2cc(Cl)c(OCCO)cc21"
measured_number = 8.09

[[record]]
smi = "Cn1c(=O)nc(N2CCOCc3c(C#CC4(C(F)(F)F)CC4)cccc32)c2cc(Cl)ccc21"
measured_number = 6.32


###

Experiment: Mouse PK profile after oral administration
Assay type: in vivo, Male CD-1 mice
Conditions: male, CD-1, plasma; mouse, oral, 5 mg/kg
The following compounds are shown together with reported AUC(0-t) values.
MEASURED_ENDPOINT: AUC(0-t) (ng·h/mL)

[[record]]
compound = "Cn1c(=O)nc(N2CCOCc3c(C#CC4CC4)cccc32)c2cc(Cl)c(OCCO)cc21 [Example 41]"
measured_number = 15300

[[record]]
compound = "Cn1c(=O)nc(N2CCOCc3c(C#CC4(C(F)(F)F)CC4)cccc32)c2cc(Cl)c(OCCO)cc21 [Example 13]"
measured_number = 26200

[[record]]
compound = "Cn1c(=O)nc(N2CCOCc3c(C#CC4(C(F)(F)F)CC4)cccc32)c2cc(Cl)ccc21 [Example 5]"
measured_number = 6660

[[record]]
compound = "Cn1c(=O)nc(N2CCOCc3c(C#CC4(C(F)(F)F)CC4)cccc32)c2cc(C#N)c(OC3CCOC3)cc21 (stereo not shown) [Example 12]"
measured_number = 7740


###

Assay: Rat PK profile after oral administration
Type: in vivo, Male SD rats
Conditions: male, SD, plasma; rat, oral, 5 mg/kg
MEASURED_ENDPOINT: Cmax (µg/mL)

[[record]]
smi = "Cn1c(=O)nc(N2CCOCc3c(C#CC4(C(F)(F)F)CC4)cccc32)c2cc(Cl)ccc21"
measured_number = 0.292

[[record]]
smi = "Cn1c(=O)nc(N2CCOCc3c(C#CC4(C(F)(F)F)CC4)cccc32)c2cc(Cl)c(OCCO)cc21"
measured_number = 0.455

[[record]]
smi = "Cn1c(=O)nc(N2CCOCc3c(C#CC4CC4)cccc32)c2cc(Cl)c(OCCO)cc21"
measured_number = 0.724

